Reported EC50 (pM), HEK-Blue IL18R reporter assay values for the following binders.
Biological target: IL-18R on HEK-Blue IL18R reporter cells (InvivoGen, #hkb-hmil18)
Test: cell-based or functional assay
Respond numerically; units are pM and should not be typed.

Guide cases for EC50 (pM), HEK-Blue IL18R reporter assay, answers given:
>  <Binder>
Modified IL-18 polypeptide of SEQ ID NO: 2 (E06K, K53A, S55A) (ligand) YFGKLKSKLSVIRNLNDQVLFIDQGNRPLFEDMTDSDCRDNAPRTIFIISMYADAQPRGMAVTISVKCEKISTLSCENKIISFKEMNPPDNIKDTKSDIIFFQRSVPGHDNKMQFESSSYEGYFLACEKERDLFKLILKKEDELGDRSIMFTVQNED

>  <Reading>
272

$$$$
>  <Binder>
Modified IL-18 polypeptide of SEQ ID NO: 71 (E6K, C38S, K53A) (ligand) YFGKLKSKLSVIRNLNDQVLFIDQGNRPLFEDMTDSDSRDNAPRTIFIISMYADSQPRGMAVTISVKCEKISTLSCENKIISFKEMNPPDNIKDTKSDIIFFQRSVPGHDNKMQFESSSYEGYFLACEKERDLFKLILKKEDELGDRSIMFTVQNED

>  <Reading>
0.86

$$$$
>  <Binder>
Modified IL-18 polypeptide of SEQ ID NO: 71 with a 30 kDa PEG attached at residue C68 (E6K, C38S, K53A, C68-30kDPEG) (ligand, 30 kDa PEG on Cys 68 (30 kDa DBCO-polyethylene glycol clicked to a bromoacetamido-PEG5-azide linker on the cysteine), also called 71 + PEG) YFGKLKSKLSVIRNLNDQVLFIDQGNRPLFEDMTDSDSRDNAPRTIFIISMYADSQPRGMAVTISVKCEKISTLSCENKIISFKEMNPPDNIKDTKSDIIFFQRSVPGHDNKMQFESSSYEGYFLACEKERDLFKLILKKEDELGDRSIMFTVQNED

>  <Reading>
1.85

$$$$

Kindly consider the entry below.
Given the entry Modified IL-18 polypeptide of SEQ ID NO: 70 (E6K, K53A, C38S, C76S, C127S) (ligand) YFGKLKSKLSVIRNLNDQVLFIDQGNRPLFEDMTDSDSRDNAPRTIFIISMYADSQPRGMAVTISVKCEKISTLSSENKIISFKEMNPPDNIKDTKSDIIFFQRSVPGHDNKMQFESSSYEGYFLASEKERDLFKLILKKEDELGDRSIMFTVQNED , report its measured EC50 (pM), HEK-Blue IL18R reporter assay. 3.73
